# system.tested: glucocerebrosidase (Gcase) (Homo sapiens, UniProt P04062)
# Construct: micellar solution containing 10 nM GCase and 100 nM saposin C
# method.summary: Glucocerebrosidase (Gcase) activation assay, 4-methylumbelliferyl-beta-D-glucopyranoside substrate, with saposin C
# Format: biochemical
# experimental.conditions: 0.25 h; read-out: Percent Gcase Activation 1 μM Test Compound
// values below are reported activation at 1 µM

molecule	activation at 1 µM
Cc1cc(C)c2onc(C(=O)NC(C3CC3)C(F)(F)F)c2n1 (stereo not shown)	> 20%
Cc1cc(-c2cncc(F)c2)nn2c(C(=O)NC(C3CC3)C(F)(F)F)cnc12 (stereo not shown)	> 20%
COc1cncc(-c2cc(C)c3ncc(C(=O)N[C@@H](C4CC4)C(F)(F)F)n3n2)c1	> 20%
CCCCCCOC1CCC(NC(=O)c2cnc3cc(C)c(Cl)nn23)CC1 (stereo not shown)	< 5%
CCCCCCOC1CCC(NC(=O)c2cnc3c(C)cc(Cl)nn23)CC1 (stereo not shown)	> 20%
Cc1cc(-c2cc(C)c3cnc(C(=O)N[C@@H](C4CC4)C(F)(F)F)n3n2)sn1	> 20%
Cc1cc(C#N)c(-c2cc(C)c3ncc(C(=O)N[C@@H](C)C(F)(F)F)n3n2)o1	> 20%
Cc1cc2ncc(C(=O)NC3CCCc4ccccc43)n2nc1Cl (stereo not shown)	5 to 20%
Cc1cc(-c2ccc(F)cc2C#N)nn2c(C(=O)N[C@@H](C)C3CC3)cnc12	> 20%
Cc1ccc(-c2cc(C)c3ncc(C(=O)N[C@H](C4CC4)C(F)(F)F)n3n2)cn1	> 20%

###

# method.summary: Compound solubility in water
# Type: physicochemical
metric.name: solubility (µg/mL)

compound	assay.result
Cc1cc(-c2cccnc2)nc2c(C(=O)NC(C)(C)C3CC3)nsc12	0.7
CCCCCCOC1CCC(NC(=O)c2ncc3c(C)cc(C)nn23)CC1 (centres unmarked)	23.1

###

# system.tested: glucocerebrosidase (Gcase) (Homo sapiens, UniProt P04062)
# Construct: micellar solution containing 10 nM GCase and 100 nM saposin C
# method.summary: Glucocerebrosidase (Gcase) activation assay, 4-methylumbelliferyl-beta-D-glucopyranoside substrate, with saposin C
# Type: biochemical
# experimental.conditions: 0.25 h; read-out: Percent Gcase Activation 0.1 μM Test Compound
# Experimental: The ability of exemplary compounds to activate glucocerebrosidase (Gcase) was measured. A 484 μL aliquot of a 1.0 mg/mL solution of phosphatidylserine (PS) (Sigma P7769) in chloroform was evaporated under a stream of nitrogen for 1 hour. The lipid film was dissolved over 4 minutes of vigorous vortexing in 40 mL of 176 mM K2HPO4/50 mM citric acid (pH 4.7) containing 7.5 μL of triton X-100, resulting in a mixed micellar preparation with a composition of 0.32 mM triton and 0.37 mol % PS. […]

compound	activation at 0.1 µM
Cc1cc(-c2cccc(C(N)=O)c2)nc2c(C(=O)NC(C3CC3)C(F)(F)F)csc12 (centres unmarked)	> 20%
Cc1cc(N2CCC(F)(F)C2)nn2c(C(=O)NC(C3CC3)C(F)(F)F)cnc12 (centres unmarked)	> 20%
Cc1cc(-c2ccc(C#N)o2)nn2c(C(=O)N[C@H](C3CC3)C(F)(F)F)cnc12	> 20%
Cc1cc(-c2cccnc2)nc2c(C(=O)NC(C3CC3)C(F)(F)F)nsc12 (centres unmarked)	< 5%
Cc1cc(-c2cccc(F)c2)nn2c(C(=O)N[C@H](C3CC3)C(F)(F)F)ncc12	> 20%
Cc1cc(C)c2scc(C(=O)NC(C3CC3)C(F)(F)F)c2n1 (centres unmarked)	> 20%
Cc1cc(-c2cccc(C(N)=O)c2)nc2c(C(=O)NC(C3CC3)C(F)(F)F)nsc12 (centres unmarked)	< 5%
Cc1cc(-c2ccc(F)cc2C#N)nn2c(C(=O)N[C@H](C)C3CC3)cnc12	< 5%
Cc1cc(-c2ccc3ocnc3c2)nn2c(C(=O)N[C@@H](C3CC3)C(F)(F)F)cnc12	> 20%
C#Cc1ccc(NC(=O)c2cnc3c(C)cc(C)nn23)cc1	5 to 20%
Cc1cc(-c2ccc3ocnc3c2)nn2c(C(=O)N[C@@H](C)C(F)(F)F)cnc12	> 20%
CCCCCO[C@H]1CC[C@H](NC(=O)c2coc3c(C)cc(C)nc23)CC1	5 to 20%
Cc1cc(C)c2cnc(C(=O)NC(C)(C)C3CC3)n2n1	< 5%
Cc1cc(-c2ccc(F)o2)nn2c(C(=O)NC(C3CC3)C(F)(F)F)cnc12 (centres unmarked)	> 20%
Cc1cc(-c2ccc(F)cc2)nn2c(C(=O)N[C@@H](C)C3CC3)ncc12	5 to 20%
O=C(NC1CCCc2ccccc21)c1cnc2ccc(Cl)nn12 (centres unmarked)	< 5%
Cc1cc(-c2ccc3ncn(C)c3c2)nn2c(C(=O)N[C@H](C3CC3)C(F)(F)F)cnc12	5 to 20%
CCCCCO[C@H]1CC[C@H](NC(=O)c2nsc3c(C)cc(C)nc23)CC1	> 20%
CCCCCO[C@H]1CC[C@H](NC(=O)c2noc3c(C)cc(C)nc23)CC1	5 to 20%
Cc1cc(-c2cncc(Cl)c2)nn2c(C(=O)N[C@H](C3CC3)C(F)(F)F)cnc12	> 20%

###

# system.tested: glucocerebrosidase (Gcase) (Homo sapiens, UniProt P04062)
# Construct: micellar solution containing 10 nM GCase and 100 nM saposin C
# Sequence (P04062 40-536): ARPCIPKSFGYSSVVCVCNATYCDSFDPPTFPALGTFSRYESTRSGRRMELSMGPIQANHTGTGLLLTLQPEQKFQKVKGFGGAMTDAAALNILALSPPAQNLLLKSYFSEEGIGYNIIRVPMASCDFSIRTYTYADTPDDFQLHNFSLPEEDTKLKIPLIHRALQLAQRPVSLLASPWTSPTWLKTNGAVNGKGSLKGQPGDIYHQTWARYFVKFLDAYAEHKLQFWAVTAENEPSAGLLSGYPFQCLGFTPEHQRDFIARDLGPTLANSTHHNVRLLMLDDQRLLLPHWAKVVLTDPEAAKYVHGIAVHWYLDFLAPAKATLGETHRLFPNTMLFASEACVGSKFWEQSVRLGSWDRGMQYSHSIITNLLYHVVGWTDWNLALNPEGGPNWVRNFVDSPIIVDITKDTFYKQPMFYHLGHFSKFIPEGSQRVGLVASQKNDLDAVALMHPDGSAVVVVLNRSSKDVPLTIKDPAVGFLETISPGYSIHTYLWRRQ
# method.summary: Glucocerebrosidase (Gcase) activation assay, 4-methylumbelliferyl-beta-D-glucopyranoside substrate, with saposin C
# Assay type: biochemical
# experimental.conditions: 0.25 h; read-out: Percent Gcase Activation 0.1 μM Test Compound
# Procedure: The ability of exemplary compounds to activate glucocerebrosidase (Gcase) was measured. A 484 μL aliquot of a 1.0 mg/mL solution of phosphatidylserine (PS) (Sigma P7769) in chloroform was evaporated under a stream of nitrogen for 1 hour. The lipid film was dissolved over 4 minutes of vigorous vortexing in 40 mL of 176 mM K2HPO4/50 mM citric acid (pH 4.7) containing 7.5 μL of triton X-100, resulting in a mixed micellar preparation with a composition of 0.32 mM triton and 0.37 mol % PS. […]
The following molecules are shown together with reported activation at 0.1 µM values.

molecule	activation at 0.1 µM
Cc1cc(-c2ccc(F)cc2C#N)nn2c(C(=O)NC(C3CC3)C(F)(F)F)cnc12 (centres unmarked)	5 to 20%
Cc1cc(C)c2ncc(C(=O)N[C@@H](C)C3CC3)n2n1	< 5%
Cc1cc(-c2ccc(F)cc2C#N)nn2c(C(=O)N[C@@H](C)C3CC3)ncc12	5 to 20%
Cc1cc(-c2ccc(C(N)=O)o2)nn2c(C(=O)N[C@@H](C3CC3)C(F)(F)F)ncc12	5 to 20%
Cc1cc(-c2ccc(F)cc2)nn2c(C(=O)NC(C)C(F)(F)F)ncc12 (centres unmarked)	5 to 20%
Cc1cc(C)c2ncc(C(=O)NC3(C)CCCc4ccccc43)n2n1 (centres unmarked)	5 to 20%
Cc1cc(C#N)c(-c2cc(C)c3ncc(C(=O)N[C@@H](C)C(F)(F)F)n3n2)o1	> 20%
Cc1cc(C)c2cnc(C(=O)Nc3ccc(-c4cocn4)cc3)n2n1	< 5%
Cc1cc(-c2ccc(F)cc2C#N)nn2c(C(=O)N[C@@H](C3CC3)C(F)(F)F)cnc12	> 20%
Cc1ccc(-c2cc(C)c3ncc(C(=O)N[C@H](C4CC4)C(F)(F)F)n3n2)cn1	5 to 20%
CCC(NC(=O)c1coc2c(C)cc(C)nc12)c1ccccc1 (centres unmarked)	> 20%

###

# system.tested: glucocerebrosidase (Gcase) (Homo sapiens)
# Construct: micellar solution containing 10 nM GCase and 100 nM saposin C
# method.summary: Glucocerebrosidase (Gcase) activation assay, 4-methylumbelliferyl-beta-D-glucopyranoside substrate, with saposin C
# Type: biochemical
# experimental.conditions: 0.25 h; read-out: Percent Gcase Activation 0.1 μM Test Compound
# Procedure: The ability of exemplary compounds to activate glucocerebrosidase (Gcase) was measured. A 484 μL aliquot of a 1.0 mg/mL solution of phosphatidylserine (PS) (Sigma P7769) in chloroform was evaporated under a stream of nitrogen for 1 hour. The lipid film was dissolved over 4 minutes of vigorous vortexing in 40 mL of 176 mM K2HPO4/50 mM citric acid (pH 4.7) containing 7.5 μL of triton X-100, resulting in a mixed micellar preparation with a composition of 0.32 mM triton and 0.37 mol % PS. […]
Reported activation at 0.1 µM by item:

molecule	activation at 0.1 µM
Cc1cc(C)c2occ(C(=O)Nc3ccc4c(c3)CCC4)c2n1	5 to 20%
Cc1cc2ncc(C(=O)NC3CCCc4ccccc43)n2nc1Cl (stereo not shown)	< 5%
Cc1cc(-c2cccnc2)nc2c(C(=O)NC(C3CC3)C(F)(F)F)csc12 (stereo not shown)	> 20%
Cc1cc(-c2cccnc2F)nn2c(C(=O)NC(C3CC3)C(F)(F)F)cnc12 (stereo not shown)	5 to 20%
COc1cccc(-c2cc(C)c3ncc(C(=O)NC(C4CC4)C(F)(F)F)n3n2)c1 (stereo not shown)	> 20%
Cc1cc(N2CC(C(C)C)OC2=O)nn2c(C(=O)N[C@@H](C3CC3)C(F)(F)F)cnc12 (stereo partly shown)	< 5%
Cc1cc(-c2ccc(F)cc2)nn2c(C(=O)NC(C)(C)C3CC3)ncc12	> 20%
CCC(NC(=O)c1cnc2ccc(Cl)nn12)c1ccccc1 (stereo not shown)	< 5%
Cc1cc(-c2cccc3ncoc23)nn2c(C(=O)NC(C3CC3)C(F)(F)F)cnc12 (stereo not shown)	5 to 20%
C#CC(C)(C)NC(=O)c1cnc2c(C)cc(-c3ccns3)nn12	< 5%
